measured-target: T1, hPAR4 (naked) peptide (human)
T1 construct: also called native PAR4 peptide; hPAR4 peptide
T1 peptide: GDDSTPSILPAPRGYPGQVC
experiment-notes: ELISA, hybridoma supernatant
I'd be grateful if you could share measured fold binding native vs KLH-linked PAR4 peptide for these entries.
Record the value in fold, omitting the unit from your answer.

Please give the measured fold binding native vs KLH-linked PAR4 peptide for this binder: 5H.RF2.A5b.D3.C2 (antibody, IgG2a, V domains shown, also called MoB5H F2) VH: QVQLQQWGAGLLKPSETLALTCAVYGGSLSDYYWSWIRQPPGKGLEWIGEINHSGTTNYNPSLKSRVTISVDTSKKQFSLKLSSVTAADTAVYYCAIEYSNSRGYYYGMDVWGQGTTVTVSS VL: DIQMTQSPSSLSASAGDRITITCRASQTISNYLNWYQQKPGKAPKLLIYAASSLQSGVPSRFSGSGSGTDFTLTISSLQPEDFASYYCRQNYNTPLTFGGGTKVEIK
11.9

And then 5G RG1.D3.C2b (antibody, IgG1, V domains shown, also called MoB5G G1) VH: QVQLVESGGGVVQPGRSLRLSCVASGFTLSSYGMHWVRQAPGKGLEWVAVIWYDGSSKYYTDSVKGRFDISRDNSKNTLYLQMNILRAEDTAVYYCARETILIGGVPFDYWGQGTLVTVSS VL: EIVLTQSPGTLSLSPGERATLSCGASQSIRSNYLAWYQQKPGQAPRLLIYGASSRATGTPDRFSGSGSGTDFTLTITRLEPEDFALYYCQQYGRSYTFGQGTKLEIK , what is it?
11.1

And then 5F RE6.D3.E7 (antibody, IgG2a, V domains shown, also called MoB5F E6) VH: QVQLAESGGGVVQPGRSLRVSCAASGFTFSSYGMHWVRQAPGKGLEWVAVIWYDGTKKYYADSLKGRFTISRDNSKYTLYLQMNSLRADDTALYFCARKGARGITGLDYWGQGTLVTVSS VL: DIQMTQSPSSLSASAGDRITITCRASQSISNYLNWYQQKPGKAPKLLIYAASSLQSGVPSRFSGSGSGTDFTLTISSLQPEDFASYYCRQNYNTPLTFGGGTKVEIK , what is it?
12

And then 5I.RG1.D6.C1b (antibody, IgG3, V domains shown, also called 51.RG1; MoB5I G1) VH: QVQLQQWGAGLLKPSETLSLACAISSGSFSTYFWRWIRQPPGKGLEWIGEIIHTGSTTYNPSLKSRVTISVDTSKNQLSLKLSSVTAADTAVYYCAFEYSSSGGYYYGMDVWGQGTTVTVSS VL: DIQMTQSPSSLSASVGDRVTITCRASQSISSYLNWYQQIPGKAPNLLIYAASSLRSGVPSRFSGSGSGTDFTLTISSLQPEDFATYYCQQTYSTPLTFGGGTKVEIK , what is it?
9.2
